Tested on: Escherichia coli TOP10;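 also: peptides expressed intracellularly from a pBAD plasmid library in pooled LB shake-flask culture, induced with 0.3% L-arabinose, DNA abundance read by NGS, three biological replicates, DESeq2 with apeglm shrinkage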
Assay: shrunken log2 fold change of peptide-encoding DNA abundance (4.5 h post-induction vs induction); higher = less antimicrobial activity (less host growth inhibition)
Conditions: time post-induction: 4.5 h; library: site-saturation at positions 5, 18, 19, 20
Decision: shrunken log2 fold change >= 0.03 yields Y, all other cases yield N.

| Residue string | Class label |
| --- | --- |
| RRIRSRPPRLPRPRPRPTPWPRP | Y |
| RRIRARPPRLPRPRPRPHRRPRP | Y |
| RRIRVRPPRLPRPRPRPRITPRP | N |
| RRIRIRPPRLPRPRPRPENAPRP | N |
| RRIRGRPPRLPRPRPRPVFSPRP | Y |
| RRIRDRPPRLPRPRPRPSHYPRP | N |
| RRIRQRPPRLPRPRPRPTLDPRP | Y |
| RRIRKRPPRLPRPRPRPTFWPRP | Y |
| RRIRSRPPRLPRPRPRPCIRPRP | N |
| RRIRARPPRLPRPRPRPMRSPRP | Y |
| RRIRARPPRLPRPRPRPAIPPRP | N |
| RRIRSRPPRLPRPRPRPMSFPRP | N |
| RRIRHRPPRLPRPRPRPKAMPRP | N |
| RRIRDRPPRLPRPRPRPQWEPRP | Y |
| RRIRKRPPRLPRPRPRPLIFPRP | N |
| RRIRYRPPRLPRPRPRPFFVPRP | N |
| RRIRMRPPRLPRPRPRPTPAPRP | Y |
| RRIRQRPPRLPRPRPRPNSLPRP | N |
| RRIRERPPRLPRPRPRPKTTPRP | N |
| RRIRIRPPRLPRPRPRPVCPPRP | N |
| RRIRNRPPRLPRPRPRPHMIPRP | N |
| RRIRWRPPRLPRPRPRPAQQPRP | N |
| RRIRDRPPRLPRPRPRPIIDPRP | N |
| RRIRIRPPRLPRPRPRPATLPRP | N |
| RRIRNRPPRLPRPRPRPNRIPRP | N |
| RRIRPRPPRLPRPRPRPAYVPRP | N |
| RRIRSRPPRLPRPRPRPSCCPRP | N |
| RRIRMRPPRLPRPRPRPSWKPRP | N |
| RRIRTRPPRLPRPRPRPPERPRP | Y |
| RRIRLRPPRLPRPRPRPGWYPRP | Y |
| RRIRVRPPRLPRPRPRPRPEPRP | Y |
| RRIRRRPPRLPRPRPRPETNPRP | Y |
| RRIRIRPPRLPRPRPRPGFWPRP | Y |
| RRIRMRPPRLPRPRPRPWAVPRP | Y |
| RRIRMRPPRLPRPRPRPNVNPRP | Y |
| RRIRQRPPRLPRPRPRPNGFPRP | N |
| RRIRKRPPRLPRPRPRPLQCPRP | Y |
| RRIRIRPPRLPRPRPRPEPDPRP | N |
| RRIRMRPPRLPRPRPRPVIIPRP | N |
